Molecular target: T1, human programmed cell death protein 1 (hPD-1) C93S (aa 24-167) (Homo sapiens, UniProt Q15116, C93S)
T1 construct: made as a fusion with a TEV site and human Fc; the Fc was cut off with TEV protease; source: Expi293F, purified (Protein A, TEV cleavage of Fc, SEC; monomer fractions); not shown: Fc (human), C-terminal, cleaved
T1 sequence (Q15116 24-167 C93S): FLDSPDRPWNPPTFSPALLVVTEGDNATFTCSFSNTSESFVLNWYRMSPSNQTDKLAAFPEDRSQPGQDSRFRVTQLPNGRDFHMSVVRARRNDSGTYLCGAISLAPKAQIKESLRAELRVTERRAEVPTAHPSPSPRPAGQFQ
Experiment: SPR; Carterra LSA; Fab from the ammonium sulfate precipitate of the culture supernatant immobilised on a NiHC200M chip; hPD-1 (1-1024 nM) or mPD-1-Fc (4-1024 nM) as analyte, fourfold dilution series, no regeneration; HBS-EP pH 7.4, 25 °C; medians over the spots of a construct, KD = koff/kon
Conditions: one partner purified
Readings of pKd for the listed binders
API: returns pKd as number; meaning -log10 of concentration in mol/L.

{"BINDER": "toripalimab Fab L.P100K (Fab, V domains shown, as the heavy chain of Sm3; light chain of Sm3 with this change; numbers count from the chain's first residue; source: Brevibacillus, culture supernatant (ammonium sulfate precipitate); not shown: 6xHis, C-terminal, kept; 6xHN, C-terminal, kept) VH: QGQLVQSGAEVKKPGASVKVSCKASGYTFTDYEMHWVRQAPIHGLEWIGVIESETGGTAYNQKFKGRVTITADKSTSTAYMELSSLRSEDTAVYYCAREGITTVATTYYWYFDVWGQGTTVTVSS VL: DVVMTQSPLSLPVTLGQPASISCRSSQSIVHSNGNTYLEWYLQKPGQSPQLLIYKVSNRFSGVPDRFSGSGSGTDFTLKISRVEAEDVGVYYCFQGSHVKLTFGQGTKLEIK", "pKd": 8.11}

## Task Please look at this binder and report its pKd: toripalimab Fab L.P100T (Fab, V domains shown, as the heavy chain of Sm3; light chain of Sm3 with this change; numbers count from the chain's first residue; source: Brevibacillus, culture supernatant (ammonium sulfate precipitate); not shown: 6xHis, C-terminal, kept; 6xHN, C-terminal, kept) VH: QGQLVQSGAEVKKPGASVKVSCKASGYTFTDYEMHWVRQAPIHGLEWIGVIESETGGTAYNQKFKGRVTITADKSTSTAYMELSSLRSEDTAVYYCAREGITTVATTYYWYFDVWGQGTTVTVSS VL: DVVMTQSPLSLPVTLGQPASISCRSSQSIVHSNGNTYLEWYLQKPGQSPQLLIYKVSNRFSGVPDRFSGSGSGTDFTLKISRVEAEDVGVYYCFQGSHVTLTFGQGTKLEIK
## Result 8.91

meta.source: paper PMC10663500
